pIC50: recorded values
- Assayed Target: IKKε (Homo sapiens (Human))
- Sequence (Q14164 whole entry): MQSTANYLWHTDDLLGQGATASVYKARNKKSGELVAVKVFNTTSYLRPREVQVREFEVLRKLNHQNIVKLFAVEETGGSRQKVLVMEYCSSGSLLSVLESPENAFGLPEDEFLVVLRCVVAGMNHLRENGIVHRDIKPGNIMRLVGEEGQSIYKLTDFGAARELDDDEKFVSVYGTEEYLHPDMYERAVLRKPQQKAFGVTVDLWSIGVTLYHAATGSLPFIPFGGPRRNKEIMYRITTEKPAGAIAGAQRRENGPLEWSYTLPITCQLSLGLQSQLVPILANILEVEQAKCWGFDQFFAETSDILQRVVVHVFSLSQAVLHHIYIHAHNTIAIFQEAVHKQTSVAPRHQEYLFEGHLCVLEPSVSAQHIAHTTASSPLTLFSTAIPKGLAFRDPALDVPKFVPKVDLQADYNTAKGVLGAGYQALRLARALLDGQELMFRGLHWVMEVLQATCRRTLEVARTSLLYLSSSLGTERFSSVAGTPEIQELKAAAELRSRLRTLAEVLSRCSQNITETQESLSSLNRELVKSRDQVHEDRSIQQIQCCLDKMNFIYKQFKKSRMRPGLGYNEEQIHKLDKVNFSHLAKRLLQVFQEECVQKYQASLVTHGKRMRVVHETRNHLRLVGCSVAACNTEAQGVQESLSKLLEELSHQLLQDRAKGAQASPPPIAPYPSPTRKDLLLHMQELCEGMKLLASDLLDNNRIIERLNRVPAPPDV
- Protocol: IKKε TR-FRET enzymatic assay
- Format: biochemical
- Condition Details: read-out: IKKe IC50
pIC50: −log10 of the molar value.
Measure: pIC50

>  <Compound>
C[C@H](O)C(=O)N1CCC(Oc2cc(C#N)cc(-c3ncnc(Nc4ccc(N5CCN(C6COC6)CC5)cc4)n3)c2)CC1 [Example 134]

>  <Lt Gt Eq>
≤

>  <Observed>
6.00

$$$$
>  <Compound>
N#Cc1cc(-c2ncnc(Nc3ccc(N4CCN(C5COC5)CC4)cc3)n2)ccc1OC1CNCC1(F)F (centres unmarked) [Example 194]

>  <Lt Gt Eq>
=

>  <Observed>
7.54

$$$$
>  <Compound>
N#Cc1cc(-c2ncnc(Nc3ccc(N4CCN(C5COC5)CC4)c(F)c3)n2)ccc1O[C@H]1CCN(C(=O)[C@@H]2CCC(=O)N2)C[C@H]1F [Example 372]

>  <Lt Gt Eq>
=

>  <Observed>
8.30

$$$$
>  <Compound>
Cn1nccc1Nc1ncnc(-c2ccc(OC3CCOCC3)c(C#N)c2)n1 [Example 73]

>  <Lt Gt Eq>
=

>  <Observed>
6.69

$$$$
>  <Compound>
CC1CC(Oc2ccc(-c3ncnc(Nc4ccc(N5CCN(C6COC6)CC5)cc4)n3)cc2C#N)CC(C)N1C(=O)CO (centres unmarked) [Example 171]

>  <Lt Gt Eq>
=

>  <Observed>
8.05

$$$$
>  <Compound>
C[C@H]1C[C@@H](Oc2ccc(-c3ncnc(Nc4ccc(N5CCN(C6COC6)CC5)cc4)n3)cc2C#N)CCN1C(=O)CO [Example 169]

>  <Lt Gt Eq>
=

>  <Observed>
8.30

$$$$
>  <Compound>
CNC(=O)N1CCC(Oc2ccc(-c3ncnc(Nc4ccc(N5CCN(C6COC6)CC5)cc4)n3)cc2C#N)CC1 [Example 41]

>  <Lt Gt Eq>
=

>  <Observed>
6.96

$$$$
>  <Compound>
N#Cc1cc(-c2ncnc(Nc3ccc(N4CCN(C5COC5)CC4)cc3)n2)cc(F)c1O[C@H]1CCN(C(=O)CCO)C[C@H]1F [Example 331]

>  <Lt Gt Eq>
=

>  <Observed>
7.85

$$$$
>  <Compound>
C[C@H](O)C(=O)N1CC[C@H](Oc2ccc(-c3ncnc(Nc4cnn(C5COC5)c4)n3)cc2C#N)[C@H](F)C1 [Example 353]

>  <Lt Gt Eq>
=

>  <Observed>
8.00

$$$$
>  <Compound>
N#Cc1cc(-c2ncnc(Nc3ccc(N4CCN(C5COC5)CC4)cc3)n2)ccc1O[C@H]1CCN(C(=O)[C@@H]2COC(=O)N2)C[C@H]1F [Example 333]

>  <Lt Gt Eq>
=

>  <Observed>
8.52

$$$$
>  <Compound>
C[C@H](O)C(=O)N1CC[C@H](Oc2ccc(-c3ncnc(Nc4ccc(N5CCN(C6COC6)CC5)cc4)n3)cc2C#N)C[C@@H]1C [Example 181]

>  <Lt Gt Eq>
=

>  <Observed>
7.70

$$$$
>  <Compound>
C[C@H](O)C(=O)N1CC[C@H](Oc2ccc(-c3ncnc(Nc4ccc([C@H]5CCCN5C5COC5)cc4)n3)cc2C#N)[C@H](F)C1 [Example 616]

>  <Lt Gt Eq>
=

>  <Observed>
8.40

$$$$
>  <Compound>
N#Cc1cc(-c2ncnc(Nc3ccc(N4CCN(C5COC5)CC4)cc3)n2)ccc1O[C@@H]1CCNC1 [Example 93]

>  <Lt Gt Eq>
=

>  <Observed>
6.92

$$$$
>  <Compound>
C[C@H]1CN(C2COC2)CCN1c1ccc(Nc2ncnc(-c3ccc(O[C@H]4CCN(C(=O)CO)C[C@H]4F)c(C#N)c3)n2)cc1 [Example 244]

>  <Lt Gt Eq>
=

>  <Observed>
9.00

$$$$

====

- Assayed Target: UniProtKB Q14164
- Protocol: IKKε TR-FRET enzymatic assay
- Format: biochemical
- Condition Details: read-out: IKKe IC50
Structures can show the parent of a compound that is named as a salt.
Catalogue of IC50 values

>  <Compound>
N#Cc1cc(-c2ncnc(Nc3ccc(N4CCNCC4)c(F)c3)n2)ccc1O[C@H]1CCN(C=O)C[C@H]1F [Example 296]

>  <IC50>
1 nM

$$$$
>  <Compound>
N#Cc1cc(-c2ncnc(Nc3ccc(N4CCN(C5COC5)CC4)cc3)n2)ccc1N1CCC2(CCOCC2)C1 [Example 212]

>  <IC50>
63 nM

$$$$
>  <Compound>
N#Cc1cc(-c2ncnc(Nc3ccc(N4CCN(C5COC5)CC4)cc3)n2)ccc1OC1CCN(C(=O)[C@H]2CCC(=O)N2)C[C@H]1F (some centres unmarked) [Example 113]

>  <IC50>
100 nM

$$$$
>  <Compound>
C[C@H](O)C(=O)N1CC[C@@H](Oc2ccc(-c3ncnc(Nc4ccc(N5CCN(C6COC6)CC5)cc4)n3)cc2C#N)C[C@H]1C [Example 185]

>  <IC50>
190 nM

$$$$
>  <Compound>
N#Cc1cc(-c2ncnc(Nc3ccc(N4CCN(C5COC5)CC4)cc3)n2)cc(F)c1O[C@H]1CCN(C(=O)CO)C[C@H]1F [Example 329]

>  <IC50>
3 nM

$$$$
>  <Compound>
N#Cc1cc(-c2ncnc(Nc3ccc(N4CCN(C5COC5)CC4)cc3)n2)ccc1OC1CC2CCC(C1)N2C(=O)CO (centres unmarked) [Example 173]

>  <IC50>
218 nM

$$$$
>  <Compound>
N#Cc1cc(-c2ncnc(Nc3ccc(N4CCN(C5COC5)CC4)cc3)n2)ccc1OCC1CNC(=O)O1 (centres unmarked) [Example 607]

>  <IC50>
16 nM

$$$$
>  <Compound>
N#Cc1cc(-c2ncnc(Nc3ccc(N4CCN(C5COC5)CC4)cc3)n2)ccc1OCC1CC1 [Example 58]

>  <IC50>
4 nM

$$$$
>  <Compound>
CC(=O)N1CC[C@H](Oc2ccc(-c3ncnc(Nc4ccc(N5CCO[C@@H](CO)C5)cc4)n3)cc2C#N)C(F)(F)C1 [Example 230]

>  <IC50>
2 nM

$$$$
>  <Compound>
C[C@H](O)C(=O)N1CC[C@H](Oc2ccc(-c3ncnc(Nc4ccc(N5CCC[C@@H](O)C5)cc4)n3)cc2C#N)[C@H](F)C1 [Example 357]

>  <IC50>
2 nM

$$$$
>  <Compound>
N#Cc1cc(-c2ncnc(Nc3ccc(N4CCN(C5COC5)CC4)cc3)n2)ccc1OC1CCN(C(=O)CO)CC1 [Example 16]

>  <IC50>
4 nM

$$$$
>  <Compound>
N#Cc1cc(-c2ncnc(Nc3ccc(N4CCNCC4)cc3)n2)ccc1OC1CCOCC1 [Example 18, trifluoroacetic acid salt]

>  <IC50>
1 nM

$$$$
>  <Compound>
N#Cc1cc(-c2ncnc(Nc3ccc(N4CCN(C5COC5)CC4)cc3)n2)ccc1O[C@H]1CCN(C(=O)Cc2ccn[nH]2)C[C@H]1F [Example 320]

>  <IC50>
40 nM

$$$$
>  <Compound>
C[C@H](O)C(=O)N1CC(F)C(Oc2ccc(-c3ncnc(Nc4ccc(N5CCN(C6COC6)CC5)cc4)n3)cc2C#N)C(C)(C)C1 (some centres unmarked) [Example 180]

>  <IC50>
17 nM

$$$$

====

- Assayed Target: TBK1 (Homo sapiens (Human), UniProt Q9UHD2)
- Sequence (Q9UHD2 whole entry): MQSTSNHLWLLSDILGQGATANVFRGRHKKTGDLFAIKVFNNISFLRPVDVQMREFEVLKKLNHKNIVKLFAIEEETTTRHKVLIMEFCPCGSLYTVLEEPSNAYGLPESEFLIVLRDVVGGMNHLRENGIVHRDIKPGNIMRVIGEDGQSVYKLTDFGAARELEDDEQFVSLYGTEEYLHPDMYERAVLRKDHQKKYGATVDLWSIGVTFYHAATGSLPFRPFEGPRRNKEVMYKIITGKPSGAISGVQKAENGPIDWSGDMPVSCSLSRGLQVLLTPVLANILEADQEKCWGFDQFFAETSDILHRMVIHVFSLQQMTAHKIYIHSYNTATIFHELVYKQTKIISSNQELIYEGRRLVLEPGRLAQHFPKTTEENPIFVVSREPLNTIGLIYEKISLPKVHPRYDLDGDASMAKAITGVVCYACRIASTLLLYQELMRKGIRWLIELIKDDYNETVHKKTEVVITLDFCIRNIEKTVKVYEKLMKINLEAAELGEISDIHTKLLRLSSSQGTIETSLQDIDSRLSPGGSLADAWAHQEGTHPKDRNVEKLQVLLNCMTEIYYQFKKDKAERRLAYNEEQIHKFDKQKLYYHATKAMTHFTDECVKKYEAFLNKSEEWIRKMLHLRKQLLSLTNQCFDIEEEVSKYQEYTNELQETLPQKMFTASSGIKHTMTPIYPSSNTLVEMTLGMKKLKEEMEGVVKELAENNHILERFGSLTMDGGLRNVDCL
- Protocol: TBK1 TR-FRET enzymatic assay;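 also: phosphorylation of a biotinylated Ser/Thr peptide by purified full-length recombinant TBK1, read by TR-FRET after 240 min at 25 °C, IC50 is the geometric mean of at least four runs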
In this section we review reported IC50 values for a set of molecules.

>  <Smiles Str>
C[C@H](O)C(=O)N1CC[C@H](Oc2ccc(-c3ncnc(Nc4ccc(N5CCN(C6COC6)CC5)c(OC(F)F)c4)n3)cc2C#N)[C@H](F)C1

>  <IC50, nM>
2

$$$$
>  <Smiles Str>
N#Cc1cc(-c2ncnc(Nc3ccc(C(=O)NC4COC4)cc3)n2)ccc1OC1CCOCC1

>  <IC50, nM>
3

$$$$
>  <Smiles Str>
N#Cc1cc(-c2ncnc(Nc3ccc(C4CCN(C5COC5)CC4)cc3)n2)ccc1O[C@H]1CCN(C(=O)c2ccn[nH]2)C[C@H]1F

>  <IC50, nM>
2

$$$$
>  <Smiles Str>
C[C@H](O)C(=O)N1CC[C@@H](Oc2ccc(-c3ncnc(Nc4ccc(N5CCN(C6COC6)CC5)cc4)n3)cc2C#N)C1

>  <IC50, nM>
26

$$$$
>  <Smiles Str>
N#Cc1cc(-c2ncnc(Nc3ccc(N4CCN(C5COC5)CC4)c(F)c3)n2)ccc1O[C@H]1CCN(C(=O)[C@@H]2CCC(=O)N2)C[C@H]1F

>  <IC50, nM>
4

$$$$
>  <Smiles Str>
Cc1ncc(C(=O)N2CC[C@H](Oc3ccc(-c4ncnc(Nc5ccc(N6CCN(C7COC7)CC6)cc5)n4)cc3C#N)[C@H](F)C2)n1C

>  <IC50, nM>
82

$$$$
>  <Smiles Str>
C[C@H](O)C(=O)N1CC[C@H](Oc2ccc(-c3ncnc(Nc4ccc(N5CCN(C)C[C@@H]5C)cc4)n3)cc2C#N)[C@H](F)C1

>  <IC50, nM>
2

$$$$
>  <Smiles Str>
CC(C)(O)c1cccc(Nc2ncnc(-c3ccc(OC4CCOCC4)c(C#N)c3)n2)c1

>  <IC50, nM>
2

$$$$
>  <Smiles Str>
C[C@@H]1C[C@H](Oc2ccc(-c3ncnc(Nc4ccc(N5CCN(C6COC6)CC5)cc4)n3)cc2C#N)CCN1C(=O)CO

>  <IC50, nM>
21

$$$$
>  <Smiles Str>
C[C@@H](O)C(=O)N1CC[C@H](Oc2ccc(-c3ncnc(Nc4ccc(N5CCN(C6COC6)CC5)cc4)n3)cc2C#N)C[C@@H]1C

>  <IC50, nM>
32

$$$$
>  <Smiles Str>
N#Cc1cc(-c2ncnc(Nc3ccc(N4CCN(C5COC5)CC4)cc3)n2)ccc1OCC1CC1

>  <IC50, nM>
2

$$$$
>  <Smiles Str>
CS(=O)(=O)N1CCN(c2ccc(Nc3ncnc(-c4ccc(OC5CCOCC5)c(C#N)c4)n3)cc2)CC1

>  <IC50, nM>
2

$$$$
>  <Smiles Str>
C[C@H](O)C(=O)N1CC[C@H](Oc2c(F)cc(-c3ncnc(Nc4ccc(N5CCN(C6COC6)CC5)cc4)n3)cc2C#N)[C@H](F)C1

>  <IC50, nM>
4

$$$$
